Biological target: IDH1 R132H (Homo sapiens, UniProt O75874, R132H)
Sequence (O75874 whole entry R132H): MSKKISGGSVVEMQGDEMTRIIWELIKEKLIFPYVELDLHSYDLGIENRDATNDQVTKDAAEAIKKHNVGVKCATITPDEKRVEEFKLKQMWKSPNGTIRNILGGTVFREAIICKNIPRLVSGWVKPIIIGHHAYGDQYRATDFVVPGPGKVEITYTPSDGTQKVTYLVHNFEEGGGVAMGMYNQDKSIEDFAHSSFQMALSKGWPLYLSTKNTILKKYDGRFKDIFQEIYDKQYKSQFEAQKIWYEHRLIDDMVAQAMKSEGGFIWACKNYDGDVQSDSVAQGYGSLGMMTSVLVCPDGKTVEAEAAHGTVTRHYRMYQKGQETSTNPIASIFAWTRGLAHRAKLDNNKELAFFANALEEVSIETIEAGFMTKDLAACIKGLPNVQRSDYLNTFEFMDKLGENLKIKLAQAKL
Assay: Enzymatic inhibition assay, mutant IDH1 R132H (NADPH depletion coupled to diaphorase/resazurin)
Details: IDH1 R132H enzyme, IC50 class
pIC50: −log10 of the molar value.
PROPERTY_NAME: pIC50

>  <COMPOUND>
CCOc1ccc(Cl)cc1-n1c(C=C(C)C)c(C(=O)N2C[C@H]3CC[C@@H](C2)N3)cc(-c2nc(-c3ccc(C(F)F)cc3)cs2)c1=O

>  <REPORTED_RESULT>
> 6.52

$$$$
>  <COMPOUND>
CCOc1ccc(Cl)cc1-n1c(C=C(C)C)c(C(=O)N2CC3CCC(C2)N3)cc(-c2nc(-c3ccc(C(F)(F)F)cc3)cs2)c1=O

>  <REPORTED_RESULT>
> 6.52

$$$$
>  <COMPOUND>
CCc1ccc(Cl)cc1-n1c(C=C(C)C)c(C(=O)N2CCNCC2)cc(-c2nc(-c3ccc(Cl)cc3)cs2)c1=O (single isomer, unassigned) [Compound 144-1]

>  <REPORTED_RESULT>
> 6.52

$$$$
>  <COMPOUND>
CCc1cccc(CC)c1-n1c(C=C(C)C)c(C(=O)N2CCNC[C@@H]2C)cc(-c2nc(-c3ccc(Cl)cc3)cs2)c1=O

>  <REPORTED_RESULT>
> 6.52

$$$$
>  <COMPOUND>
CCOc1ccc(Cl)c(-n2c(C=C(C)C)c(C(=O)N3CC4CCC(C3)N4)cc(-c3nc(-c4ccc(Cl)cc4)cs3)c2=O)c1 (single isomer, unassigned) [Compound 126-2]

>  <REPORTED_RESULT>
5.30 to 6.00

$$$$

Data request, read-out pIC50, for `CC(C)=Cc1c(C(=O)N2CCNCC2)cc(-c2nc(-c3ccc(Cl)cc3)cs2)c(=O)n1-c1cc(N(C)C)ccc1Cl` > 6.52

Data request, read-out pIC50, for `CCc1cccc(CC)c1-n1c(C=C(C)C)c(C(=O)N2CCNC[C@H]2C)cc(-c2nc(-c3ccc(C(F)F)cc3)cs2)c1=O` > 6.52

Data request, read-out pIC50, for CCc1ccc(OC)cc1-n1c(C=C(C)C)c(C(=O)N2C[C@H]3CC[C@@H](C2)N3)cc(-c2nc(-c3ccc(Cl)cc3)cs2)c1=O (single isomer, unassigned) [Compound 114-1] > 6.52

Data request, read-out pIC50, for `CCc1cccc(CC)c1-n1c(C=C(C)C)c(C(=O)N2CCNC[C@@H]2C)cc(-c2nc(-c3ccc(C(F)F)cc3)cs2)c1=O` > 6.52

Data request, read-out pIC50, for `CCOc1ccc(Cl)c(-n2c(C=C(C)C)c(C(=O)N3C[C@H]4CC[C@@H](C3)N4)cc(-c3nc(-c4ccc(C(F)(F)F)cc4)cs3)c2=O)c1` > 6.52

Data request, read-out pIC50, for `CCOc1ccc(Cl)cc1-n1c(C=C(C)C)c(C(=O)N2CCN[C@@H](C)C2)cc(-c2nc(-c3ccc(C(F)(F)F)cc3)cs2)c1=O` > 6.52

Data request, read-out pIC50, for `CCOc1ccc(Cl)c(-n2c(C=C(C)C)c(C(=O)N3C[C@H]4CC[C@@H](C3)N4)cc(-c3nc(-c4ccc(C(F)F)cc4)cs3)c2=O)c1` > 6.52
